# maps each entry to its T½
Target: T1, macaca fascicularis (mf) PRLR.mmh (soluble monomeric monkey PRLR) (Macaca fascicularis)
T1 construct: called soluble monomeric PRLR protein
T1 chain: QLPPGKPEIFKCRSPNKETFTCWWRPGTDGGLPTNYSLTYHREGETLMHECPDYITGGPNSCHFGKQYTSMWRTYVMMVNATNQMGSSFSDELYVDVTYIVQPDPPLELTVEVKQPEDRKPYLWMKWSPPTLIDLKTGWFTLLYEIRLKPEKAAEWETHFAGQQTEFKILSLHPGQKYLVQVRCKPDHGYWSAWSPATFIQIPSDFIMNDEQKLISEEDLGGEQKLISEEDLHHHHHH
Test: SPR Biacore, 25 C, mAb capture
Please state the figure in min; there is no need to write the unit.

[[record]]
binder = "H1H6976N (antibody, human IgG1, V domains shown, Tested with human IgG1 Fc (H1H); also called H2M6976N) VH: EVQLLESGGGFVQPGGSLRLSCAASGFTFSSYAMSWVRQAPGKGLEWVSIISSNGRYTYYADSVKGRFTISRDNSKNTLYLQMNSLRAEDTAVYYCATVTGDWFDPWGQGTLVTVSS VL: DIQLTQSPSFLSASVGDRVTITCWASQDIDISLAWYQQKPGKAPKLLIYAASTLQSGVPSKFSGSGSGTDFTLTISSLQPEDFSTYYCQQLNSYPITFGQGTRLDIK"
measure = "T½"
measure_unit = "min"
observed_result = 14.2

[[record]]
binder = "H1H6765P (antibody, human IgG1, V domains shown, Human IgG1 Fc (H1H)) VH: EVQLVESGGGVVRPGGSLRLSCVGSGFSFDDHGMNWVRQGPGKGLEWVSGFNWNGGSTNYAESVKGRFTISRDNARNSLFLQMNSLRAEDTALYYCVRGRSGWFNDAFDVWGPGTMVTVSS VL: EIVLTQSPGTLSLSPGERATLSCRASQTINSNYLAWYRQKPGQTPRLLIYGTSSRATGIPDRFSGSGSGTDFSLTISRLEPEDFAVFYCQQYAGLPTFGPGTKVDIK"
measure = "T½"
measure_unit = "min"
observed_result = 86

[[record]]
binder = "H1H6790P (antibody, human IgG1, V domains shown, Human IgG1 Fc (H1H)) VH: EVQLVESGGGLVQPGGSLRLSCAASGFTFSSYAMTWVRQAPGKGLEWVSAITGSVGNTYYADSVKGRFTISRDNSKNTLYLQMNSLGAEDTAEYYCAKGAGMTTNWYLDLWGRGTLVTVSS VL: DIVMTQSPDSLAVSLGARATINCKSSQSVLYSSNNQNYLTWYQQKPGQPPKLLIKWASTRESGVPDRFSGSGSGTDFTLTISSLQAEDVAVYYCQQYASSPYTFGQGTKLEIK"
measure = "T½"
measure_unit = "min"
observed_result = 15

[[record]]
binder = "H1H6960N (antibody, human IgG1, V domains shown, Tested with human IgG1 Fc (H1H); also called H2M6960N) VH: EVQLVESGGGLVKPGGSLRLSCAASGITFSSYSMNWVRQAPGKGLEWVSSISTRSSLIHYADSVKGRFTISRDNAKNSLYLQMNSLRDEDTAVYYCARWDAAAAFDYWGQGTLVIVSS VL: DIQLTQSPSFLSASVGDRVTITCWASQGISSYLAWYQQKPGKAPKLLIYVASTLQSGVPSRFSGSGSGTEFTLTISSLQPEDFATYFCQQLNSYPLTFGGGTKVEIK"
measure = "T½"
measure_unit = "min"
observed_result = 19.8


Prompt: Requested read-out: T½. Entry: H1H6966N (antibody, human IgG1, V domains shown, Tested with human IgG1 Fc (H1H); also called H2M6966N) VH: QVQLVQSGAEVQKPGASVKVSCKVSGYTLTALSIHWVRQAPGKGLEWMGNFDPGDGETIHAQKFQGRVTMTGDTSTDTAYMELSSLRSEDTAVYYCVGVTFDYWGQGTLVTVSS VL: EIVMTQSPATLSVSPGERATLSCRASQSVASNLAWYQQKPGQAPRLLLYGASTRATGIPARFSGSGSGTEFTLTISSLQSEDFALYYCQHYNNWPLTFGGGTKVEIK
Response: 35.6
